Tested on: OVCAR-4 ovarian
TEST PROTOCOL: NCI tumour cell line growth inhibition, 48 h; in the data active = GI50 below about 0.43 µM; inactive = the rest
One label from this list, please: 1 for active, 0 for inactive

Problem: Test call for this compound, please: O=C(O)c1cn(C2CC2)c2cc(N3CCN(Cc4c(O)ccc5ccccc45)CC3)c(F)cc2c1=O
Result: 0

Problem: Test call for this compound, please: CC(C)C(=O)c1c(C(F)(F)F)n([O-])c2ccccc2[n+]1=O
Result: 0

Problem: Test call for this compound, please: CN(C)C=Nc1c(I)cc(I)c(CCC(=O)O)c1I
Result: 0

Problem: Test call for this compound, please: O=c1oc2ccc(Br)cc2c(=O)n1-c1ccc(Cl)cc1F
Result: 0

Problem: Test call for this compound, please: Cc1ccc(OCCOCCOCCOCCOCCOc2ccc(C)n(O)c2=S)c(=S)n1O
Result: 1

Problem: Test call for this compound, please: Cc1ccccc1C(C(=O)NC1CCCCC1)N(C(=O)CNc1ncccc1F)c1cccc(F)c1 (stereo unspecified)
Result: 0

----------
System: U251 CNS
TEST PROTOCOL: NCI tumour cell line growth inhibition, 48 h
For each entry below, report its TGI value.

Problem: Jot down TGI (U251 CNS) of Cc1ccc(C2=Nc3ccccc3S(=O)C(c3ccc4c(c3)OCO4)C2)cc1 (stereo not drawn) .
Result: 31.1 µM

Problem: Jot down TGI (U251 CNS) of Cn1cc(C2=C(c3cn(CCCCCO)c4ccccc34)C(=O)NC2=O)c2ccccc21 .
Result: > 17.3 µM

Problem: Jot down TGI (U251 CNS) of CN(C)C(=NC#N)N(Cc1ccccc1)Cc1ccccc1 .
Result: > 100 µM

Problem: Jot down TGI (U251 CNS) of Cc1ccc(S(=O)(=O)OCCOCCOCCOCCOCCOS(=O)(=O)c2ccc(C)cc2)cc1 .
Result: > 100 µM

Problem: Jot down TGI (U251 CNS) of COc1ccc(OC)c(/C=C/c2ccnc3ccccc23)c1 .
Result: 5.66 µM

Problem: Jot down TGI (U251 CNS) of Cc1ccccc1Nc1nc(NNC(=O)Cc2ccccc2)nc(NNC(=O)c2ccncc2)n1 .
Result: > 10 µM

Problem: Jot down TGI (U251 CNS) of NC(=O)Cn1c(=O)oc2cc(C(=O)CN3CCOCC3)ccc21 .
Result: > 100 µM

Problem: Jot down TGI (U251 CNS) of NC(N)=Nc1ccc(/C=C2\C=Cc3ccccc32)cc1 .
Result: 3.31 µM

----------
For each entry below, report its TGI value.
Test system: MALME-3M melanoma
TEST PROTOCOL: NCI tumour cell line growth inhibition, 48 h
All answers are understood in µM, so give the number only.

Problem: Answer with the recorded TGI for the molecule listed here: CC1(C)CCCCCCCCCC2CC2CCC(C)(C)C1=O (configuration not stated)
Result: 49

Problem: Answer with the recorded TGI for the molecule listed here: COc1ccc2c(c1)CCCc1c-2nc2ccccc2c1N
Result: 27.1

Problem: Answer with the recorded TGI for the molecule listed here: CCCCCCCCCCCCCCCCCC(=O)OCC1OC(OC)C(NC(=O)N(CCCl)N=O)C(O)C1O (configuration not stated)
Result: 78.3

Problem: Answer with the recorded TGI for the molecule listed here: O=[N+]([O-])/C(Cl)=C/C(=C1/Nc2ccccc2O1)[N+](=O)[O-]
Result: 29.8

Problem: Answer with the recorded TGI for the molecule listed here: Nc1cc(Cl)ccc1SSc1ccc(Cl)cc1N
Result: 36.3

Problem: Answer with the recorded TGI for the molecule listed here: O=C1C=C(c2ccccc2)O/C1=C\C(=O)c1ccc(Cl)cc1
Result: 29.4

Problem: Answer with the recorded TGI for the molecule listed here: CN(C)CC1CCC/C(=C\c2ccccc2)C1=O (configuration not stated)
Result: 3.46

Problem: Answer with the recorded TGI for the molecule listed here: CCNc1nnc(-c2ccccc2Nc2ccccc2-c2nnc(NCC)s2)s1
Result: 58.4

Problem: Answer with the recorded TGI for the molecule listed here: CCN(CC)Cc1cc(Nc2ccnc3ccc4nn(C)nc4c23)ccc1O
Result: 31.3

Problem: Answer with the recorded TGI for the molecule listed here: O=C(CSSCC(=O)Nc1ccc(Br)cc1)Nc1ccc(Br)cc1
Result: 43

Problem: Answer with the recorded TGI for the molecule listed here: COc1cc(O)c2c(c1)C(=O)C1=C(C2=O)C(O)C[C@@](C)(O)C1 (some centres not stated)
Result: 2.11

Problem: Answer with the recorded TGI for the molecule listed here: Cc1cc2c(cc1Cl)SC(c1ccccc1O)NS2(=O)=O (configuration not stated)
Result: 61.8

Problem: Answer with the recorded TGI for the molecule listed here: CN(/N=C\c1ccnc2ccccc12)c1ccccc1
Result: 52.8

Problem: Answer with the recorded TGI for the molecule listed here: COc1cc2c(c(OC)c1OC)-c1c(c3ccc([N+](=O)[O-])cc3c(=O)n1CCCN)C2=O
Result: 1.92

Problem: Answer with the recorded TGI for the molecule listed here: CC[PH+](CC)CC.CC[PH+](CC)CC.[Au]
Result: 24.7

Problem: Answer with the recorded TGI for the molecule listed here: C=CC1(c2ccc3ccccc3c2)OCC(CC)O1 (configuration not stated)
Result: 93.2

Problem: Answer with the recorded TGI for the molecule listed here: CN(C)CCOc1ccccc1NC1=C(Cl)C(=O)C(Nc2ccccc2OCCN(C)C)=C(Cl)C1=O
Result: 12.8

Problem: Answer with the recorded TGI for the molecule listed here: CN1CC2=C(NC(=S)NC2c2ccccc2Cl)/C(=C/c2ccccc2Cl)C1 (configuration not stated)
Result: 74.4

Problem: Answer with the recorded TGI for the molecule listed here: COc1cc(CNc2c3ccccc3nc3ccccc23)cc(OC)c1OC
Result: 12.5
